# assay-system: intracellular GCN2 (phosphorylation of the GCN2 substrate eIF2α) (Homo sapiens, UniProt Q9P2K8)
# Sequence (Q9P2K8 whole entry): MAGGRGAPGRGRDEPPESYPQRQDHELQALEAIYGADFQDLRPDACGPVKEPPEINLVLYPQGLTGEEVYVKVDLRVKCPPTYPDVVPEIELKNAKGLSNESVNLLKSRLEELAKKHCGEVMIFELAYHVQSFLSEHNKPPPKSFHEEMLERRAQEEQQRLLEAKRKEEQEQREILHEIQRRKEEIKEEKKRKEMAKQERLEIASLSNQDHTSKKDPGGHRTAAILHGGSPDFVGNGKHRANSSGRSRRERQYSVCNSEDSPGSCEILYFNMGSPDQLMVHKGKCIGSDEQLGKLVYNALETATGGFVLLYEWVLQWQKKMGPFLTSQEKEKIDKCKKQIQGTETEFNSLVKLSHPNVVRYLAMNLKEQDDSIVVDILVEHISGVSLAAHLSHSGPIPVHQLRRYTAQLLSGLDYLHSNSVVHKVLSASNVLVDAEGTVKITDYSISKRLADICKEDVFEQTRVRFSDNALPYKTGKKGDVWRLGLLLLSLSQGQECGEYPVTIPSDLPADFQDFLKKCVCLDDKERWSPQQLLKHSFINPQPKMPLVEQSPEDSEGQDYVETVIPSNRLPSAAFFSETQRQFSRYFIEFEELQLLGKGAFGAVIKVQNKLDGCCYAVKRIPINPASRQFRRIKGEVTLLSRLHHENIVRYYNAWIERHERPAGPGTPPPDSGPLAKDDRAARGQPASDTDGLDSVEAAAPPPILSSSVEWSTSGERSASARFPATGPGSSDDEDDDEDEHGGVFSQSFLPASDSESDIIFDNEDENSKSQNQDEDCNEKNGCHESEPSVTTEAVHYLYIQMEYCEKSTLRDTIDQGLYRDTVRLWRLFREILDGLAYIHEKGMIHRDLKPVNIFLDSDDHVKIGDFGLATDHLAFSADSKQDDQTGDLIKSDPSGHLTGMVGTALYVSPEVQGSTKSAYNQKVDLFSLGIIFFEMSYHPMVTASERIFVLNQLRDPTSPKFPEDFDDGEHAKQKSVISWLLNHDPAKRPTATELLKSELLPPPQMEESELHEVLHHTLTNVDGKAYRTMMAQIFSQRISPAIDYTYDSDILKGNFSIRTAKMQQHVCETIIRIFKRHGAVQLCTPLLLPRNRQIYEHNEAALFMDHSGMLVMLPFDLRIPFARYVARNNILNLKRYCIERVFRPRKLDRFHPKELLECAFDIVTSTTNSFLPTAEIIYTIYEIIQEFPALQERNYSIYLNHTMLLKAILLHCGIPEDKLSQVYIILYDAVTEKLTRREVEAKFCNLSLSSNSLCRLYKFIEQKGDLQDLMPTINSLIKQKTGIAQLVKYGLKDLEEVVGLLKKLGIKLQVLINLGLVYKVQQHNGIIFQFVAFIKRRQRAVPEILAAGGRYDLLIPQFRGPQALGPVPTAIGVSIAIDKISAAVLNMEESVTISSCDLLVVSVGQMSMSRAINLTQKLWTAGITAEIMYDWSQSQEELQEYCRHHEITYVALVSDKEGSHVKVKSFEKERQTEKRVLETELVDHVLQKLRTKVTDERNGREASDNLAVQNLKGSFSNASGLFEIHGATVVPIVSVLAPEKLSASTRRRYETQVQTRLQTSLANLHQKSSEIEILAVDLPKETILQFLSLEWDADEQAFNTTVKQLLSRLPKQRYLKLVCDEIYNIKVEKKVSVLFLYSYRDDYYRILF
# experiment-summary: GCN2 cellular inhibition assay (AlphaScreen SureFire P-eIF2α Ser51, borrelidin-treated U2OS cells)
# Assay type: cell-based
# test-settings: compounds of Formula II; biomarker assay, phosphorylated eIF2α Ser51 in borrelidin-treated U2OS cells
parameter: IC50

In [3]: df
Out[3]:
                                   molecule  observed_result
0  CC1C(CS(C)(=N)=O)CCCN1c1cc(-c2cnc3ccc(C(F)F)nn23)ncn1 (stereo not shown) [II-488]           > 5 µM
1  C[C@H]1[C@@H](CNS(C)(=O)=O)CC(F)(F)CN1c1cc(-c2cnc3ccc(C(F)F)nn23)ncn1 (single isomer, unassigned)         < 0.5 µM
2  FC(F)c1ccc2ncc(-c3cc(N4CCc5ccccc54)ncn3)n2n1           > 5 µM
3  NS(=O)(=O)CCC1CCCCN1c1cc(-c2cnc3ccc(C(F)F)nn23)ncn1 (stereo not shown)           > 5 µM

###

Listing: IC50 of selected compounds
# assay-system: intracellular GCN2 (phosphorylation of the GCN2 substrate eIF2α) (Homo sapiens, UniProt Q9P2K8)
# experiment-summary: GCN2 cellular inhibition assay (AlphaScreen SureFire P-eIF2α Ser51, borrelidin-treated U2OS cells)
# Type: cell-based
# test-settings: compounds of Formula II; biomarker assay, phosphorylated eIF2α Ser51 in borrelidin-treated U2OS cells
parameter: IC50

>>> print(df.to_string())
                                   compound  observed_result
0  CC1C(CNS(C)(=O)=O)C(F)(F)C(C)CN1c1cc(-c2cnc3ccc(C(F)F)nn23)ncn1 (single isomer, unassigned) [II-469]   500 to 5000 nM
1  O=C(O)[C@H]1CCCN(c2cc(-c3cnc4ccc(C(F)F)nn34)ncn2)C1 [II-505]        > 5000 nM
2  CS(=O)(=O)NCC1CCCN(c2cc(-c3cnc4ccc(C(F)F)nn34)cc(N3CC4(CCO4)C3)n2)C1 (centres unmarked) [II-86]   500 to 5000 nM
3  CC1CC(N=S(C)(C)=O)CN(c2cc(-c3cnc4ccc(C(F)F)nn34)c(F)cn2)C1 (single isomer, unassigned) [II-723]   500 to 5000 nM
4  CS(=O)(=O)NC(=O)C1CCCN(c2cc(-c3cnc4ccc(C(F)F)nn34)ncn2)C1 (centres unmarked) [II-460]        > 5000 nM
5  FC(F)c1ccc2ncc(-c3ccnc(N4CCOC(c5cn[nH]c5)C4)c3)n2n1 (centres unmarked) [II-107]         < 500 nM
6  CC1CN(c2cc(-c3cnc4ccc(C(F)F)nn34)ccn2)CC(CNS(C)(=O)=O)C1(F)F (centres unmarked) [II-78]         < 500 nM
7  CS(=O)(=O)N1CCC2(CCN(c3cc(-c4cnc5ccc(C(F)F)nn45)ncn3)C2)CC1 [II-54]   500 to 5000 nM

###

# assay-system: intracellular GCN2 (phosphorylation of the GCN2 substrate eIF2α) (Homo sapiens, UniProt Q9P2K8)
# experiment-summary: GCN2 cellular inhibition assay (AlphaScreen SureFire P-eIF2α Ser51, borrelidin-treated U2OS cells)
# Type: cell-based
# test-settings: compounds of Formula II; biomarker assay, phosphorylated eIF2α Ser51 in borrelidin-treated U2OS cells
parameter: IC50

>>> print(df.to_string())
                                    compound  parameter  observed_result
 0  FC(F)c1ccc2ncc(-c3cc(N4CCOC(Cn5cncn5)C4)ncn3)n2n1 (stereo not shown)       IC50           > 5 µM
 1  CC1C(CNS(C)(=O)=O)OCCN1c1cc(-c2cnc3ccc(C(F)F)nn23)ncn1 (stereo not shown) [II-346]       IC50           > 5 µM
 2  OC[C@@H]1C[C@@H](C(F)(F)F)CN(c2cc(-c3cnc4ccc(C(F)F)nn34)ncn2)C1       IC50           > 5 µM
 3  FC(F)c1ccc2ncc(-c3ccnc(N4CCC5(CCNCC5)CC4)c3)n2n1       IC50           > 5 µM
 4  O=C1CCN(c2cc(-c3cnc4ccc(C(F)F)nn34)ccn2)CCN1       IC50      0.5 to 5 µM
 5  CS(=O)(=O)N1CCOC2(CN(c3cc(-c4cnc5ccc(C(F)F)nn45)ncn3)C2)C1       IC50           > 5 µM
 6  CS(=O)(=O)NCC1CC(N2CC(F)C2)CN(c2cc(-c3cnc4ccc(C(F)F)nn34)ncn2)C1 (stereo not shown) [II-428]       IC50           > 5 µM
 7  CC(=O)NCC1CCCN(c2cc(-c3cnc4ccc(C(F)F)nn34)ncn2)C1 (stereo not shown)       IC50      0.5 to 5 µM
 8  CS(=O)(=O)NC[C@@H]1CN(c2cc(-c3cnc4ccc(C(F)F)nn34)ncn2)C[C@H](C(F)(F)F)O1       IC50         < 0.5 µM
 9  C[C@@H]1CC[C@H](CNS(C)(=O)=O)CN1c1cc(-c2cnc3ccc(C(F)F)nn23)ncn1       IC50         < 0.5 µM
10   CN1CCN(c2cc(-c3cnc4ccc(Cl)nn34)ccn2)CC1       IC50           > 5 µM
11  CC1CN(c2cc(-c3cnc4ccc(C(F)F)nn34)ncn2)C(C)C(c2cn[nH]c2)N1 (single isomer, unassigned)       IC50      0.5 to 5 µM
12  CS(=O)(=O)N1CC2(CCCN(c3cncc(-c4cnc5ccc(C(F)F)nn45)c3)C2)C1       IC50      0.5 to 5 µM
13  CC1C(CNS(C)(=O)=O)C(C)(O)C(C)CN1c1cc(-c2cnc3ccc(C(F)F)nn23)ncn1 (stereo not shown)       IC50         < 0.5 µM
14  CS(C)(=O)=NC[C@@H]1CN(c2cc(-c3cnc4ccc(C(F)F)nn34)ccn2)CCO1       IC50           > 5 µM
15  COCCNc1cc(-c2cnc3ccc(C(F)F)nn23)cc(N2CCCC(CNS(C)(=O)=O)C2)n1 (stereo not shown)       IC50      0.5 to 5 µM
16  CS(C)(=O)=NC[C@@H]1CN(c2cc(-c3cnc4ccc(C(F)(F)F)nn34)ncn2)CCO1       IC50           > 5 µM
17  CS(=O)(=O)NC1CCCN(c2cc(-c3cnc4ccc(C(F)(F)F)nn34)ccn2)C1 (stereo not shown)       IC50      0.5 to 5 µM
18  N#CCC1CCCN(c2cc(-c3cnc4ccc(C(F)F)nn34)ncn2)C1 (stereo not shown)       IC50      0.5 to 5 µM
19  CS(=O)(=O)NCC1CCCN(c2cc(-c3cnc4ccc(C(F)F)nn34)ncn2)C1 (stereo not shown)       IC50         < 0.5 µM
20  CS(C)(=O)=NC1CCCN(c2cc(-c3cnc4ccc(C(F)F)nn34)ncn2)C1C(F)F (stereo not shown) [II-701]       IC50           > 5 µM
21  CS(=O)(=O)NCC1CN(c2cc(-c3cnc4ccc(C(F)F)nn34)ccn2)CCN1 (stereo not shown)       IC50      0.5 to 5 µM
22  CS(=O)(=O)N1CC2CCCN(c3cc(-c4cnc5ccc(C(F)F)nn45)ncn3)C2C1 (stereo not shown)       IC50           > 5 µM
23  CS(=O)(=O)NCC1CN(c2cc(-c3cnc4ccc(C(F)F)nn34)ncn2)CC1O (stereo not shown) [II-140]       IC50           > 5 µM
24  CN1CCN(c2cc(-c3cnc4ccc(C(F)F)nn34)ncn2)CC1CC(N)=O (stereo not shown)       IC50      0.5 to 5 µM
25  CS(=O)(=O)NCC1CCCN(c2cc(-c3cnc4ccc(C#N)nn34)ncn2)C1 (stereo not shown)       IC50      0.5 to 5 µM
26  CC1CN(c2cc(-c3cnc4ccc(C(F)F)nn34)ccn2)CC(CNS(C)(=O)=O)O1 (stereo not shown) [II-119]       IC50         < 0.5 µM
27  CNc1cc(-c2cnc3ccc(C(F)F)nn23)cc(N2CCO[C@H](CNS(C)(=O)=O)C2)n1       IC50         < 0.5 µM
28  FC(F)c1ccc2ncc(-c3cc(N4CCCCC4C(F)(F)F)ncn3)n2n1 (stereo not shown)       IC50           > 5 µM
29  CS(=N)(=O)CCC1CCCN(c2cc(-c3cnc4ccc(C(F)F)nn34)ccn2)C1 (stereo not shown)       IC50           > 5 µM
30  CS(=O)(=O)CCN1CCC(c2cc(-c3cnc4ccc(C(F)F)nn34)ncn2)C1 (stereo not shown)       IC50           > 5 µM
31  COC1CC(CNS(C)(=O)=O)CN(c2cc(-c3cnc4ccc(C(F)F)nn34)ncn2)C1 (stereo not shown) [II-198]       IC50           > 5 µM
32  CC1CC(CNS(C)(=O)=O)CN(c2cc(-c3cnc4ccc(C(F)F)nn34)ncn2)C1 (single isomer, unassigned) [II-437]       IC50         < 0.5 µM
33  CC1C(CNS(C)(=O)=O)C(F)(F)CCN1c1cc(-c2cnc3ccc(C(F)F)nn23)ncn1 (stereo not shown) [II-432]       IC50         < 0.5 µM

These data points were gathered from patent US10988477B2.
